Let's look at some compounds and their measured IC50.
molecular target: rat TRPV1 (Rattus norvegicus (Rat)); conditions: read-out: Rat IC50
Sequence (O35433 whole entry): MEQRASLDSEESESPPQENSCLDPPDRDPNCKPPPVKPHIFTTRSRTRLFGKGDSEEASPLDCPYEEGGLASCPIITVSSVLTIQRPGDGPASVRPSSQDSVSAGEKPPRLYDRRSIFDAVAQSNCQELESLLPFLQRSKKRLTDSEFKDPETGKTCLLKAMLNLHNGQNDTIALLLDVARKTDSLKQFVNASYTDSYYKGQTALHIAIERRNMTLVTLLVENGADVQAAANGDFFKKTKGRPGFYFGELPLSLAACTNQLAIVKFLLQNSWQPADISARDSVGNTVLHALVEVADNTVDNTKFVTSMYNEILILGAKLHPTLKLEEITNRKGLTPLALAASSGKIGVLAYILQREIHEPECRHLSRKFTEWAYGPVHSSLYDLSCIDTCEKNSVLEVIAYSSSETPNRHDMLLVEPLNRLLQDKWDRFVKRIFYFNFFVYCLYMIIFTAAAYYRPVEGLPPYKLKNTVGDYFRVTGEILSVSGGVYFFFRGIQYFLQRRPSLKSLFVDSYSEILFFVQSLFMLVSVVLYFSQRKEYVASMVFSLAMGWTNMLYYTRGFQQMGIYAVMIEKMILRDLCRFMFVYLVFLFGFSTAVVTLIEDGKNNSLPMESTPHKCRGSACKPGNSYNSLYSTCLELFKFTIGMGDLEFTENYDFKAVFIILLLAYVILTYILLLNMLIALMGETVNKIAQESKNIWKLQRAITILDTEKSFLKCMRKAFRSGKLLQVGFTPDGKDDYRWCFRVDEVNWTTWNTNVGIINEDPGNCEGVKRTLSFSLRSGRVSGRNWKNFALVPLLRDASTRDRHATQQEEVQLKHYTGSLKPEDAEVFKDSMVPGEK
Counter-ions that a name gives are not always drawn.
measurement.kind: IC50 (nM)

compound | measurement.kind | value.observed
FC(F)(F)c1cccnc1N1CCc2nc(N3CCCCCC3)nc(NCc3ccc(Cl)c(Cl)c3)c2CC1 | IC50 | 700
CC(C)Sc1nc2c(c(Nc3ccc4c(c3)N(C)CCC4(C)C)n1)CCN(c1ncccc1C(F)(F)F)CC2 | IC50 | 330
CC(C)c1nc2c(c(NCc3ccc(C(F)(F)F)cc3)n1)CCN(c1ncccc1C(F)(F)F)CC2 | IC50 | 13500
OC[C@H]1CCCN1c1nc2c(c(Nc3ccc(C(F)(F)F)cc3)n1)CCN(c1ncccc1C(F)(F)F)CC2 [Example 261, hydrochloride salt] | IC50 | 340

Where do the numbers come from? From patent US9422293B2.
